FYI, the data here is from paper PMC1888804.

system: α subunit of Escherichia coli DNA polymerase III holoenzyme (E. coli, UniProt P10443 1-1160)
Sequence (P10443 whole entry): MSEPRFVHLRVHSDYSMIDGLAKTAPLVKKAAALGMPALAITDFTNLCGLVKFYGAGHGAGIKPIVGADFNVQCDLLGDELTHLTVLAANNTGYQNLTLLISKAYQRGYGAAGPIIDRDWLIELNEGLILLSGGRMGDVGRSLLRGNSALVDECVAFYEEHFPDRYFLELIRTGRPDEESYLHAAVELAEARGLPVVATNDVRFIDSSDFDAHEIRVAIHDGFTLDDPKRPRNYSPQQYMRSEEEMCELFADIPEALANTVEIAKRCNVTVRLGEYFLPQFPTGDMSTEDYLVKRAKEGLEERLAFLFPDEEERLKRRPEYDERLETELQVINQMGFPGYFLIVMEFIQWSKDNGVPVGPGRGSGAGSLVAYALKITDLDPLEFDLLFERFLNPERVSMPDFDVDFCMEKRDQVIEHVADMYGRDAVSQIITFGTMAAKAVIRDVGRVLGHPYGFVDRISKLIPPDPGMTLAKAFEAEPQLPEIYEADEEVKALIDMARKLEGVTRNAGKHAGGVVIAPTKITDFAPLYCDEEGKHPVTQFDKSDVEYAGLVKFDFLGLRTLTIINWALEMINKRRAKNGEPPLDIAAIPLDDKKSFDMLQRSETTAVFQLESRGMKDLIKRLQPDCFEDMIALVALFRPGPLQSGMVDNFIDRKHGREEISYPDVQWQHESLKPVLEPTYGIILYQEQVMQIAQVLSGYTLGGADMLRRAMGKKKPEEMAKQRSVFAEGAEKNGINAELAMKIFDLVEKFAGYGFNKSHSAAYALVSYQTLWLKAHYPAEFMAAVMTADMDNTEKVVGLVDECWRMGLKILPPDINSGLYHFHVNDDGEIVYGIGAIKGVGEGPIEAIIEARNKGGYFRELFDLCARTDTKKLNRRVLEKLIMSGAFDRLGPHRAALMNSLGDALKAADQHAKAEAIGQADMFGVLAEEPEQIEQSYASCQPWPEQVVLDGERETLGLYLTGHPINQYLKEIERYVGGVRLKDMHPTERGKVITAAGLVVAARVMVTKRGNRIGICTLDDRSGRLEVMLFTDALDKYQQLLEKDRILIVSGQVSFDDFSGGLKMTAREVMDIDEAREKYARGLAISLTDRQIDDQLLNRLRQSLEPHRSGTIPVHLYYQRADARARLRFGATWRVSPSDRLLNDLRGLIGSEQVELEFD
test-description: SPR
reported-property: pKd
Note: pKd values are expressed as the negative base-10 logarithm of concentration in M.

Could you tell me which pKd is on file for τC16[D636G] (domain or fragment, E. coli) MKALEHEKTPELAAKLAAEAIERDPWAAQVSQLSLPKLVEQVALNAWKEESDNAVCLHLRSSQRHLNNRGAQQKLAEALSMLKGSTVELTIVEDDNPAVRTPLEWRQAIYEEKLAQARESIIADNNIQTLRRFFDAELGEESIRPI ?
8.42

Continuing:
Could you tell me which pKd is on file for τC16 (Domain V of the τ subunit of E. coli DNA polymerase III holoenzyme, residues 499–643) (domain or fragment) MKALEHEKTPELAAKLAAEAIERDPWAAQVSQLSLPKLVEQVALNAWKEESDNAVCLHLRSSQRHLNNRGAQQKLAEALSMLKGSTVELTIVEDDNPAVRTPLEWRQAIYEEKLAQARESIIADNNIQTLRRFFDAELDEESIRPI ?
9.89

Could you tell me which pKd is on file for τC16[F631I] (domain or fragment, E. coli) MKALEHEKTPELAAKLAAEAIERDPWAAQVSQLSLPKLVEQVALNAWKEESDNAVCLHLRSSQRHLNNRGAQQKLAEALSMLKGSTVELTIVEDDNPAVRTPLEWRQAIYEEKLAQARESIIADNNIQTLRRFIDAELDEESIRPI ?
7.00
